Assay: Primary qHTS for delayed death inhibitors of the malarial parasite plastid, 96 hour incubation; also: potency is read from the fitted curve at half-maximal effect
Settings: P. falciparum luciferase reporter growth; series mostly up to 28.7 µM
The campaign covered roughly 320,000 compounds. About 22,000 (6.9%) were called active. About 27% were inconclusive and are not listed. The entries come from a sample that favours actives as a whole.
MEASUREMENT TYPE: Potency

# count of solved cases: 6
>>> val("C=CCn1c(SCC(=O)c2ccc(Br)cc2)nnc1C(C)NC(=O)Cc1ccc(OC)cc1 (configuration not stated)")
"inactive"
>>> val("O=C(Nc1cccc([N+](=O)[O-])c1)c1ccc2c(c1)OCO2")
"inactive"
>>> val("Cc1ccsc1C(=O)NC1CCCCC1C (configuration not stated)")
"inactive"
>>> val("COc1ccc(-c2nnc(SCC(=O)Nc3cccnc3Cl)n2C)cc1")
"inactive"
>>> val("CC(C)CN(C(=O)c1cccc(S(=O)(=O)N2CCCCC2)c1)C1CCS(=O)(=O)C1 (configuration not stated)")
"inactive"
>>> val("COc1ccc(C(=O)NC(C)CCc2ccccc2)c(OC)c1 (configuration not stated)")
"inactive"

q: GET /values?readout=Potency&item= NS(=O)(=O)c1ccc(CNC(=O)c2cccc(S(=O)(=O)N3CCc4ccccc43)c2)cc1
a: inactive

q: GET /values?readout=Potency&item= Cc1ccc(S(=O)(=O)N(C)C)cc1NC(=O)C1Cc2ccccc2CN1C(=O)c1ccco1 (configuration not stated)
a: inactive

q: GET /values?readout=Potency&item= CCOC(=O)Cc1csc(NC(=O)CSc2ccc(Br)cc2)n1
a: 2.62 µM (active)

q: GET /values?readout=Potency&item= CCc1ccc(OCC(=O)OC(C)C(=O)NC2CC2)cc1 (configuration not stated)
a: inactive

q: GET /values?readout=Potency&item= CC(NC(=O)Nc1cccc([N+](=O)[O-])c1)c1ccc2c(c1)OCO2 (configuration not stated)
a: 2.08 µM (active)

q: GET /values?readout=Potency&item= O=C(COC(=O)/C=C/c1cccs1)NC1CCCCC1
a: inactive
